# Ratio IC50 listing for each entry below
organism: Homo sapiens; assay: Selectivity for human eNOS to human iNOS

{"COMPOUND": "CN1CCC(N(C)Cc2cc(Cl)ccc2Br)CC1", "Ratio IC50": 2}

Challenge: Given the entry CN(Cc1cc(Cl)ccc1C#N)C1CCCNCC1 (centres undefined) , report its measured Ratio IC50.
Response given: 7

Challenge: # get_value(readout='Ratio IC50', item= CC(C)CN(Cc1cc(Cl)ccc1C#N)[C@@H]1CCCNC1 )
Response given: > 25

Challenge: // Ratio IC50 lookup, key: CC(C)CN1CCC(N(C)Cc2cc(Cl)ccc2C#N)CC1
Response given: 1

###

// Nitric oxide synthase 1 (Homo sapiens, UniProt P29475) IC50 records
// units = nM; emit number, no label

{"COMPOUND": "CC(C)CN(Cc1cc(Cl)ccc1C#N)[C@H]1CCCNC1", "MEAS_VALUE": 5300}
{"COMPOUND": "CN1CCC(N(C)Cc2cc(Cl)ccc2C#N)CC1", "MEAS_VALUE": 540}
{"COMPOUND": "CCCN(Cc1cc(Cl)ccc1C#N)C1CCNCC1", "MEAS_VALUE": 140}
{"COMPOUND": "CN(Cc1cc(Cl)ccc1C#N)C1CCN(CC2CC2)CC1", "MEAS_VALUE": 530}
{"COMPOUND": "CC(C)CN(Cc1cc(Cl)ccc1C#N)C1CCNCC1", "MEAS_VALUE": 1900}

Challenge: Which measured IC50 value corresponds to CN(Cc1cc(Cl)ccc1C#N)C1CCN(CCc2ccccc2)CC1 ?
Response given: 150

Challenge: For N#Cc1ccc(Cl)cc1CN(CC1CC1)C1CCNCC1 , what is its reported IC50?
Response given: 748

Challenge: Please look up its IC50: CC(=N)NCCSCC[C@H](N)C(=O)O [GW-274150]
Response given: 8400

###

Listing: pIC50 of selected compounds
target: Nitric oxide synthase, inducible (Homo sapiens); test: Inhibition of human iNOS expressed in human DLD1 cells after 1 hr; format: cell-based, DLD-1
Scale for pIC50: -log10 of concentration given in mol/L; no unit attached.

Observe how each entry below is paired with its result.
{"MOL": "CCN1CCC(N(C)Cc2cc(Cl)ccc2C#N)CC1", "pIC50": 6.43}
{"MOL": "N#Cc1ccc(Cl)cc1CN(C1CCCC1)C1CCNCC1", "pIC50": 5.82}
{"MOL": "CC(C)CN(Cc1cc(Cl)ccc1C#N)[C@@H]1CCCNC1", "pIC50": 6.59}
{"MOL": "CCCN(Cc1cc(Cl)ccc1C#N)C1CCNCC1", "pIC50": 6.89}

Challenge: May I ask what pIC50 has been recorded for CCN(Cc1cc(Cl)ccc1C#N)C1CCNCC1 ?
Response given: 7.00

Challenge: # input compound: CC(C)CN(Cc1cc(Cl)ccc1C#N)[C@@H]1CCCN(C)C1 ; wanted: its pIC50
Response given: 6.33

###

target: Nitric oxide synthase, inducible (Homo sapiens); experiment: Inhibition of cytokine-induced iNOS activity in human DLD1 cells after 24 hrs; format: cell-based, DLD-1
Label t when IC50 < 2 µM; otherwise f.

Challenge: Hello, I'm reviewing records and need to know if IC50 of CN(Cc1cc(Cl)ccc1C#N)C1CCN(CC2CC2)CC1 is below 2 µM. Could you check?
Response given: f

Challenge: Determine whether this molecule shows IC50 lower than 2 µM (ties excluded): CC(C)CN(Cc1cc(Cl)ccc1C#N)[C@@H]1CCCNC1
Response given: t

Challenge: Is it true that IC50 reported for CCCCN(Cc1cc(Cl)ccc1C#N)C1CCNCC1 is less than 2 µM?
Response given: f

Challenge: Hello, I'm reviewing records and need to know if IC50 of CC(C)CN(Cc1cc(Cl)ccc1C#N)[C@@H]1CCCN(C)C1 is below 2 µM. Could you check?
Response given: t

Challenge: Given CC(=N)NCCCC[C@H](N)C(=O)O [L-NIL] , is recorded IC50 strictly lower than 2 µM?
Response given: f

Challenge: In plain terms, does N#Cc1ccc(Cl)cc1CN(c1ccccc1)C1CCNCC1 come in under 2 µM for IC50?
Response given: f

###

species on record: Homo sapiens; experiment: Selectivity for human eNOS to human iNOS
MEASURED_ENDPOINT: Ratio IC50

Worked cases, Ratio IC50 given:
{"MOLECULE": "CC(C)CN(Cc1cc(Cl)ccc1C#N)C1CCCNC1 (stereo unspecified)", "Ratio IC50": "> 15"}
{"MOLECULE": "CC(C)CN(Cc1cc(Cl)ccc1C#N)[C@H]1CCCNC1", "Ratio IC50": "> 25"}
{"MOLECULE": "CC(C)CN(Cc1cc(Cl)ccc1C#N)C1CCNCC1", "Ratio IC50": "> 25"}
{"MOLECULE": "CC(C)CN(Cc1cc(Cl)ccc1C#N)[C@@H]1CCCN(C)C1", "Ratio IC50": "> 15"}
{"MOLECULE": "N#Cc1ccc(Cl)cc1CN(c1ccccc1)C1CCNCC1", "Ratio IC50": "> 15"}
{"MOLECULE": "CC(C)CN(Cc1cc(Cl)ccc1C#N)[C@H]1CCCN(C)C1", "Ratio IC50": "> 50"}

Challenge: Value lookup for Ratio IC50; key = CC(=N)NCCSCC[C@H](N)C(=O)O
Response given: > 45

Challenge: Requested read-out: Ratio IC50. Entry: CC(C)N(Cc1cc(Cl)ccc1C#N)C1CCNCC1
Response given: 18

Challenge: Entry under review: N#Cc1ccc(Cl)cc1CN(CC1CC1)C1CCNCC1 . Reported Ratio IC50?
Response given: 13

Challenge: Sample CN(Cc1cc(Cl)ccc1C#N)C1CCN(CC2CC2)CC1 — what was its Ratio IC50?
Response given: 3

Challenge: Recorded Ratio IC50 of CN1CCC(N(C)Cc2cc(Br)ccc2C#N)CC1 , please.
Response given: 4

Challenge: Ratio IC50 for CN(Cc1cc(Cl)ccc1C#N)C1CCN(CCc2ccccc2)CC1 ?
Response given: 1

###

biological target: Nitric oxide synthase, inducible (Homo sapiens, UniProt P35228); assay: Inhibition of human iNOS expressed in human DLD1 cells after 1 hr; format: cell-based, DLD-1
Sequence (P35228 whole entry): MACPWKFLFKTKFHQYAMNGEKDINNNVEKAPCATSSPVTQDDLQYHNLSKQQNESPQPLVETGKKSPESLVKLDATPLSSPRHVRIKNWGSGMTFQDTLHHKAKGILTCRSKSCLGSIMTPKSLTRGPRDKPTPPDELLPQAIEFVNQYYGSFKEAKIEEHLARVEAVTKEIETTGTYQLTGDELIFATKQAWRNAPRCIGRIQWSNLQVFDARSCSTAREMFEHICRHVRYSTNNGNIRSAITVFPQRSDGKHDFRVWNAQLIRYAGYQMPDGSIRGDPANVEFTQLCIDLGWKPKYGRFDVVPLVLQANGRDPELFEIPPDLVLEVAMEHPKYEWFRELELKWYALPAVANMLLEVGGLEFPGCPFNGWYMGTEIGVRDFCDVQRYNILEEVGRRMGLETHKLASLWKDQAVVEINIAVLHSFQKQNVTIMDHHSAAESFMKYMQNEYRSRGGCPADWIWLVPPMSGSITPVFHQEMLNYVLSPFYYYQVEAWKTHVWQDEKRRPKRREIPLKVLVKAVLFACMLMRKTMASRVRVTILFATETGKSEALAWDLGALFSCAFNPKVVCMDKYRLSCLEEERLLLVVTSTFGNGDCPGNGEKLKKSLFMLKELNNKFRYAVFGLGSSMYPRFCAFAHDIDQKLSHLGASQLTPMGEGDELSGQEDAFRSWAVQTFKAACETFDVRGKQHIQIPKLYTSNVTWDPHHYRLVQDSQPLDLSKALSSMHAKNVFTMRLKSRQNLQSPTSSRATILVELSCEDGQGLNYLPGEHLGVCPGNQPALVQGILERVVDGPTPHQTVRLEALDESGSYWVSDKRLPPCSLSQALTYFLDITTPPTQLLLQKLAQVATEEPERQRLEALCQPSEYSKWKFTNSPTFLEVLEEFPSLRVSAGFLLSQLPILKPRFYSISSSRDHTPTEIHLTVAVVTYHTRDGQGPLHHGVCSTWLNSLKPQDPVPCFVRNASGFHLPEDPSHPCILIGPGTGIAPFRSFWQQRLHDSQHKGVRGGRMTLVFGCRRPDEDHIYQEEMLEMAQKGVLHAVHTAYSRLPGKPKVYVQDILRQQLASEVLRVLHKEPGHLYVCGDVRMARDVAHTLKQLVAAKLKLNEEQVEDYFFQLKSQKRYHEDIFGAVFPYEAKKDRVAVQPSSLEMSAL
Parameter IC50: see the listing below.

{"COMPOUND": "CN(Cc1cc(Cl)ccc1C#N)C1CCCNC1 (stereo not drawn)", "TARGET_OR_TEST_SYSTEM": "Nitric oxide synthase, inducible (Homo sapiens, UniProt P35228)", "MEASURED_ENDPOINT": "IC50", "MEAS_VALUE": "180 nM"}

Challenge: Tell me the measured IC50 of CC(C)CN(Cc1cc(Cl)ccc1C#N)[C@H]1CCCNC1 , please.
Response given: 330 nM

Challenge: Entry CN1CCC(N(C)Cc2cc(Cl)ccc2Br)CC1 has what IC50?
Response given: 420 nM

Challenge: Which IC50 reading was recorded for the compound CN(Cc1cc(Cl)ccc1C#N)C1CCNCC1 ?
Response given: 330 nM

###

target: UniProtKB P35228; assay: Inhibition of cytokine-induced iNOS activity in human DLD1 cells after 24 hrs; type: cell-based, DLD-1
MEASURED_ENDPOINT: pIC50
Scale explanation: pIC50 corresponds to minus log10 of a concentration expressed in moles per litre.

Would you please look over these solved cases?
{"COMPOUND": "CC(C)CN(Cc1cc(Cl)ccc1C#N)[C@H]1CCCN(C)C1", "pIC50": 6.49}
{"COMPOUND": "CCCN1CCC(N(C)Cc2cc(Cl)ccc2C#N)CC1", "pIC50": 5.36}
{"COMPOUND": "CC(C)CN(Cc1cc(Cl)ccc1C#N)[C@H]1CCCNC1", "pIC50": 6.24}
{"COMPOUND": "CC(C)N(Cc1cc(Cl)ccc1C#N)C1CCNCC1", "pIC50": 6.42}
{"COMPOUND": "CN(Cc1cc(Cl)ccc1C#N)C1CCCNC1 (stereo not given)", "pIC50": 5.36}

Challenge: Given the compound CCCN(Cc1cc(Cl)ccc1C#N)C1CCNCC1 , what is its reported pIC50?
Response given: 6.55

Challenge: Requested read-out: pIC50. Entry: CN(Cc1cc(Cl)ccc1C#N)C1CCNCC1
Response given: 5.23

Challenge: Given the entry CC(C)CN(Cc1cc(Cl)ccc1C#N)C1CCCNC1 (stereo not given) , report its measured pIC50.
Response given: 5.92

Challenge: Record request: pIC50 value, item N#Cc1ccc(Cl)cc1CN(CC1CC1)C1CCNCC1
Response given: 5.85

Challenge: For the compound CCCCN1CCC(N(C)Cc2cc(Cl)ccc2C#N)CC1 , what pIC50 is on record?
Response given: 5.42

Challenge: Which pIC50 value is on record for CCN(Cc1cc(Cl)ccc1C#N)C1CCNCC1 ?
Response given: 6.24

###

Examples of compounds with documented Ratio IC50 follow.
organism: Homo sapiens; experiment: Selectivity for human eNOS to human iNOS
Response field accepts a number only; no unit should be typed.

{"COMPOUND": "CN(Cc1cc(Cl)ccc1C#N)C1CCNCC1", "MEAS_VALUE": 3}

Challenge: Which Ratio IC50 is reported for this compound? CN(Cc1cc(Cl)ccc1C#N)C1CCCNC1 (centres undefined)
Response given: 5

Challenge: Name the reported Ratio IC50 value associated with the compound CN1CCC(N(C)Cc2cc(Cl)ccc2C#N)CC1
Response given: 3
